The values you see were collected from paper PMC4336329.

# test system: human ether-à-go-go-related gene (hERG) potassium channel (human, UniProt Q12809);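 note: peak tail current of the secondary pulse compared with the same well before compound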
# Sequence (Q12809 whole entry, looked up): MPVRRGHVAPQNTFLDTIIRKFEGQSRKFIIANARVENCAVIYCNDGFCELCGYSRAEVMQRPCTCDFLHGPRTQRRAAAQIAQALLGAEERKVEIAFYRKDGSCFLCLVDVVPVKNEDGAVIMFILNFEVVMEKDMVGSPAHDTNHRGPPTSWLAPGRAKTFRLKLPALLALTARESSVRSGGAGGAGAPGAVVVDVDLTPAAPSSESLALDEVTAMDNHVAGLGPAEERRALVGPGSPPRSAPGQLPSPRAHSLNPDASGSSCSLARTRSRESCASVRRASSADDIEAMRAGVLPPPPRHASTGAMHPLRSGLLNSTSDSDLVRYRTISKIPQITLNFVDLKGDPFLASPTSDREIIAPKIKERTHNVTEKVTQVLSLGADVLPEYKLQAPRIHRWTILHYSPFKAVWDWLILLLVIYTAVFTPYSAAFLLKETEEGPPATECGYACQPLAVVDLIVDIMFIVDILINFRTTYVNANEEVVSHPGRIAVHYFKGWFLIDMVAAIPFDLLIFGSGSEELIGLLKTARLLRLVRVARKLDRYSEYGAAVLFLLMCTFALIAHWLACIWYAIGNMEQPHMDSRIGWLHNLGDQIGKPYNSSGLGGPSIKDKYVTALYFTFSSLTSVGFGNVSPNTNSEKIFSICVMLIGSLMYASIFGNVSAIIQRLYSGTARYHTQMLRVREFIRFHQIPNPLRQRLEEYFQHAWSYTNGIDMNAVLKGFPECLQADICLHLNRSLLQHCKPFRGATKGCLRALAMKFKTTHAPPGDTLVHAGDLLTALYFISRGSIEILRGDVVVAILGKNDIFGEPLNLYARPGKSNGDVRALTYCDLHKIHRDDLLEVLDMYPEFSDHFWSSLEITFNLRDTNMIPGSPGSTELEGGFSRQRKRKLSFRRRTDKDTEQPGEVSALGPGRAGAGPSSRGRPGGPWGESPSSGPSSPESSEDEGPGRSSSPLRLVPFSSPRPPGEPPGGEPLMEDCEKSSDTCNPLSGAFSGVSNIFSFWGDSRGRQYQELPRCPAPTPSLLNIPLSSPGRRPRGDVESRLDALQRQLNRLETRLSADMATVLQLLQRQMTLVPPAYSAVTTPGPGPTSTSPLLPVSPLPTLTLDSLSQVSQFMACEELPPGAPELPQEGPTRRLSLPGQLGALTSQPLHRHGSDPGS
# assay notes: primary screen, population patch clamp on CHO cells stably expressing hERG; higher = less effect of the substance
Among all 310,000 compounds or so, about 14,000 (4.5%) showed an effect of 50% or more. Effects have a minus sign here. What follows is part of a selection rich in strong results, with near analogues and random picks from the rest.
metric name: hERG current change (%, negative = inhibition) at 10uM
A complete answer gives the number followed by the unit.

The following compounds have reported results that may help.
Cn1c(OCc2cccnc2)nc2c1c(=O)n(Cc1ccc(F)cc1)c(=O)n2C = -51.9%
Clc1ccc(-c2nc(/C=N/N3CCOCC3)c3ccccn23)cc1 = -5.18%
CN1CCN(/N=C/c2nc(-c3ccc(Cl)cc3)n3ccccc23)CC1 = -62.1%
Cn1c(OCc2cccnc2)nc2c1c(=O)n(Cc1ccccc1)c(=O)n2C = -56.1%
Cn1c(=O)c2c(nc(OCc3cccnc3)n2Cc2c(F)cccc2Cl)n(C)c1=O = 1.03%
CN1CCN(/N=C/c2nc(-c3ccccc3)n3ccccc23)CC1 = -19.9%
Cn1c(OCc2cccnc2)nc2c1c(=O)n(Cc1ccc(Cl)cc1)c(=O)n2C = -51.1%
Cn1c(=O)c2c(nc(SCc3cccnc3)n2Cc2ccc(F)cc2)n(C)c1=O = -30.7%

As a next step, examine the compound that follows.
I am curious: what hERG current change (%, negative = inhibition) at 10uM value has been reported for CC(C)C(=O)Nc1ccc(C(=O)NNC(=O)c2ccco2)cc1 ?
7.75%
